system: HeLa; experiment: Primary qHTS to identify gynecologic anti-cancer compounds using libraries of approved drugs and bioactive compounds (AID 1345084); conditions: Gynecologic cancer cell panel viability, ATPlite luminescence, 48 h; series mostly up to 57.5 µM; further: nearly all actives have a fitted effect of over 55% in size
Inconclusive results are not listed. The source made the active and inactive calls. The call rests on the fitted dose curve; in most records, active means well fitted cell-killing curve with a large enough effect; inconclusive means small, poorly fitted or top-dose-only effect, or effect the other way; inactive means flat fitted curve, though single readings scatter.
Mark one answer only. Choices: active, inactive

CN(C)c1ccc(C(=C2C=CC(=[N+](C)C)C=C2)c2ccccc2)cc1	active
COc1ccc(/C=C/C(=O)Nc2ccccc2C(=O)O)cc1OC	inactive

Exercise: In this assay, the call recorded for CN(C)CCn1nnnc1SCC1=C(C(=O)O)N2C(=O)[C@@H](NC(=O)Cc3csc(N)n3)[C@H]2SC1 was what?
Key: inactive

Exercise: In this assay, the call recorded for Nc1ccc(O)c(C(=O)O)c1 was what?
Key: inactive

Exercise: In this assay, the call recorded for c1ccc2sc(SSc3nc4ccccc4s3)nc2c1 was what?
Key: inactive

Exercise: In this assay, the call recorded for CC(N)C(=O)OC(C)(C)Cc1ccc(Cl)cc1 (stereo unspecified) was what?
Key: inactive

Exercise: In this assay, the call recorded for COC(=O)Nc1nc2ccc(C(=O)C3CC3)cc2[nH]1 was what?
Key: active

Exercise: In this assay, the call recorded for COc1cc(/C=C/C(=O)N2CCN(CC(=O)N3CCCC3)CC2)cc(OC)c1OC was what?
Key: inactive
